# Test system: SW-620
# assay-name: Cytotoxicity against human SW620 cells after 72 hrs by MTT assay
# Format: functional, cell-based
# run-parameters: SW-620, 72 h
The following compounds are shown together with reported IC50 values.
Quick reminder: number only, in µM, skip the unit.

Check out these entries, answers already filled in.
{"chem-smiles": "COc1cccc(/C=C2\\CCC/C(=C\\c3ccc(O)c(Cl)c3)C2=O)c1OC", "value-unit": "µM", "IC50": 16.8}
{"chem-smiles": "COc1ccc(/C=C2\\CCC/C(=C\\c3ccc(O)c(O)c3)C2=O)cc1OC", "value-unit": "µM", "IC50": 10.5}
{"chem-smiles": "COc1ccc(/C=C2\\CCC/C(=C\\c3cccc(OC)c3OC)C2=O)cc1", "value-unit": "µM", "IC50": 13.6}
{"chem-smiles": "COc1ccc(/C=C2\\CCC/C(=C\\c3cccc(Cl)c3)C2=O)cc1OC", "value-unit": "µM", "IC50": 5.1}

Note to self: IC50 recorded for COc1cc(/C=C2\CCC/C(=C\c3cccc(OC)c3OC)C2=O)ccc1O was 8.6

---

Listed here are molecules together with their documented IC50.
# Test system: A549
# assay-name: Cytotoxicity against human A549 cells after 72 hrs by MTT assay
# Format: functional, cell-based
# run-parameters: A549, 72 h

{"chem-smiles": "COc1cccc(/C=C2\\CCC/C(=C\\c3ccc(O)cc3)C2=O)c1OC", "readout-value": "> 20 µM"}
{"chem-smiles": "COc1cc(/C=C2\\CCC/C(=C\\c3cccc(OC)c3OC)C2=O)ccc1O", "readout-value": "> 20 µM"}

Record COc1cccc(/C=C2\CCC/C(=C\c3ccc(Cl)cc3Cl)C2=O)c1OC . Reported IC50: > 20 µM

According to the records, this molecule COc1ccc(/C=C2\CCC/C(=C\c3ccc(Cl)cc3)C2=O)cc1OC displays IC50 of 10.1 µM

Just so you know, measured IC50 for COc1ccc(/C=C2\CCC/C(=C\c3ccccc3Cl)C2=O)cc1OC came out at > 20 µM

Noted for COc1ccc(/C=C2\CCC/C(=C\c3cccc(OC)c3OC)C2=O)cc1OC : its IC50 reads 14.4 µM

Short answer for COc1ccccc1/C=C1\CCC/C(=C\c2cccc(OC)c2OC)C1=O : IC50 was > 20 µM

Notebook: COc1cccc(/C=C2\CCC/C(=C\c3ccc(Cl)c(Cl)c3)C2=O)c1OC , IC50 read as > 20 µM

Reported IC50 for COc1cccc(/C=C2\CCC/C(=C\c3cccc(Cl)c3)C2=O)c1OC was > 20 µM

For reference, reported IC50 for COc1ccc(/C=C2\CCC/C(=C\c3ccc(OC)c(OC)c3)C2=O)cc1 stands at > 20 µM

---

Catalogue of compounds with associated inhibition at 20 µM
# Tested on: A549
# assay-name: Cytotoxicity against human A549 cells assessed as inhibition of cell proliferation at 20 uM after 72 hrs by MTT assay relative to control
# Assay type: functional
# run-parameters: A549, 72 h

Would you please look over these solved cases?
{"chem-smiles": "COc1cc(/C=C2\\CCC/C(=C\\c3cccc(OC)c3OC)C2=O)ccc1O", "inhibition at 20 µM": "> 50%"}
{"chem-smiles": "COc1ccccc1/C=C1\\CCC/C(=C\\c2ccc(OC)c(OC)c2)C1=O", "inhibition at 20 µM": "> 50%"}

Now for the compound whose inhibition at 20 µM we want.
Field inhibition at 20 µM (A549), entry COc1ccc(/C=C2\CCC/C(=C\c3ccccc3Cl)C2=O)cc1OC : > 50%
